experiment: NCI Yeast Anticancer Drug Screen. Data for the cln2 rad14 strain (AID 165);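 also: 0% = growth equal to vehicle treated cultures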; conditions: S. cerevisiae cln2 rad14 strain, at 50.0 µM
The panel holds about 79,000 compounds, 15% with a hit somewhere; the sample as a whole holds those more often. The source made the active and inactive calls. Rule as the data show it: active = growth inhibition above about 70%; inactive = the rest.
Please reply with one of these outcomes: yes = active, no = inactive

Known results for compounds:
Compound	Class assignment
O=C1OC(c2ccccc2)(c2ccccc2)Cc2ccccc21	yes
COc1cc2c(cc1O)CCN[C@@]21CS[C@H]2c3c(OC(C)=O)c(C)c4c(c3C(COC1=O)N1C2C2c3c(cc(C)c(OC)c3O)CC([C@@H]1O)N2C)OCO4 (some centres not stated)	yes
CC(=O)CCC(Br)(CCC(Br)(CCC(C)=O)[N+](=O)[O-])[N+](=O)[O-] (configuration not stated)	yes
NNc1c(F)c(F)c(-c2c(F)c(F)c(NN)c(F)c2F)c(F)c1F	yes
CC(Cc1ccccc1)N1C(=O)C=CC1=O (configuration not stated)	yes
CN(/N=C/c1ccc(C(=O)O)cc1)C1=NCCCCN1	no

Now turn to the next compound.
Request: Hi team, can someone confirm the assay call for `CCCOCCC#N` ?
Response: no

---

Measured growth inhibition of individual entries
experiment: NCI Yeast Anticancer Drug Screen. Data for the cln2 rad14 strain (AID 165);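 also: 0% = growth equal to vehicle treated cultures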; conditions: S. cerevisiae cln2 rad14 strain, at 50.0 µM (retest, dose inferred, filed as 5.0), hits give high values
Compounds without any hit were thinned out: in the full panel of roughly 79,000, 15% have a hit. The source made the active and inactive calls. Cut-off read from the data, not from the text of the source: active = growth inhibition above about 70%; inactive = the rest.

>>> print(df.to_string())
                                   compound  observed_result
0  CN(C)c1ccccc1CC(c1c[nH]c2ccccc12)c1c[nH]c2ccccc12     94% (active)
1  NC(=S)C1CCC(C2CCCCC2)CC1 (centres undefined)     94% (active)
2  C[C@H]1CC[C@@H]2[C@@H](C)[C@H]3[C@H](C[C@H]4[C@@H]5CC=C6C[C@@H](O)CC[C@]6(C)[C@H]5CC[C@]34C)N2C1     98% (active)

Moving on to the next compound.
Request: Consider the compound `CCN(CC)CCOc1ccc(C=C2c3ccccc3-c3ccccc32)cc1` and give its recorded growth inhibition.
Response: 99% (active)

---

Assay: NCI Yeast Anticancer Drug Screen. Data for the mec2-1 strain (AID 157)
Settings: S. cerevisiae mec2-1 strain, at 5.0 µM (retest, dose inferred, filed as 0.5)
Protocol: Growth inhibition of yeast strains with defined genetic alterations is measured as a screen for potential anti-cancer activity. Selected strains with alterations in DNA damage repair or cell cycle control were exposed to compounds and growth inhibition was measured relative to vehicle treated controls. The strain used in this assay is mec2-1
About 79,000 compounds went through this panel and 15% of them were active in at least one assay; those are over-represented in the sample as a whole. Active and inactive are the calls of the source. No stated cut-off is given here; in the data, active means growth inhibition above about 70%; inactive means the rest.
Please reply with one of these outcomes: Y for active, N for inactive

Compound	Class assignment
C/C(=N/NC(=S)Nc1ccc([N+](=O)[O-])cc1)c1cccc(/C(C)=N\NC(=S)Nc2ccc([N+](=O)[O-])cc2)n1	N

Request: Hi team, can someone confirm the assay call for `O=C(CBr)c1cccc(OC(=O)c2ccccc2)c1` ?
Response: Y

Request: Hi team, can someone confirm the assay call for COC1(OC)C2(Cl)C(Cl)=C(Cl)C1(Cl)C1C2C2CC1(C(=O)O)c1ccccc12 (centres undefined) ?
Response: N

Request: Hi team, can someone confirm the assay call for `Nc1ncnc2c1c(-c1ccccc1)cn2-c1ccc(I)cc1` ?
Response: N

Request: Hi team, can someone confirm the assay call for `CCCCN(CCCC)CC(=O)c1ccc2cc(Cl)c3ccccc3c2c1` ?
Response: N

Request: Hi team, can someone confirm the assay call for `Cc1cc(CC(O)(C(F)(F)F)C(F)(F)F)cc(CC(O)(C(F)(F)F)C(F)(F)F)n1` ?
Response: N

Request: Hi team, can someone confirm the assay call for `N#CCc1nc2c(s1)C(=O)c1ccccc1C2=O` ?
Response: N

Request: Hi team, can someone confirm the assay call for CC(/C=C1\C(=O)N(C)C(CC(C)C(Cl)(Cl)Cl)C(=O)N1C)C(Cl)(Cl)Cl (centres undefined) ?
Response: N

Request: Hi team, can someone confirm the assay call for CC(CC=NCCN=CCC(C)CC(C)(C)C)CC(C)(C)C (centres undefined) ?
Response: N

Request: Hi team, can someone confirm the assay call for `O=C1c2ccccc2/C=C\C(c2ccccc2)=N/N1c1ccccc1Cl` ?
Response: N

Request: Hi team, can someone confirm the assay call for `CCCCCCCCCC[N+](C)(C)CCC[N+](C)(C)CCCCCCCCCC` ?
Response: N

Request: Hi team, can someone confirm the assay call for `O=c1cc(Cl)c(Cl)nn1-c1ccccc1` ?
Response: N

Request: Hi team, can someone confirm the assay call for `O=[N+]([O-])/C=C/C=C/c1ccco1` ?
Response: N

Request: Hi team, can someone confirm the assay call for COC(=O)C1c2cc3c(c(O)c2CCC1(C)O)C(=O)c1c(O)cc2c(c1C3=O)OC1OC2(C)C(O)C(N(C)C)C1O (centres undefined) ?
Response: N

Request: Hi team, can someone confirm the assay call for CC1CCC2(NC1)OC1CC3[C@@H]4CC=C5C=CCC[C@]5(C)C4CC[C@]3(C)C1C2C (some centres undefined) ?
Response: N

Request: Hi team, can someone confirm the assay call for CC(C)c1ccc2c(c1)CCC1C(C)(CNC(=O)S)CCCC21C.[Zn+2] (centres undefined) ?
Response: N

Request: Hi team, can someone confirm the assay call for `Cc1ccc(-c2c3nc(c(-c4ccc(C)cc4)c4ccc([nH]4)c(-c4ccc(C)cc4)c4nc(c(-c5ccncc5)c5ccc2[nH]5)C=C4)C=C3)cc1.Cc1ccc(-c2c3nc(c(-c4ccc(C)cc4)c4ccc([nH]4)c(-c4ccc(C)cc4)c4nc(c(-c5ccncc5)c5ccc2[nH]5)C=C4)C=C3)cc1.O=S(=O)([O-])C(F)(F)F.[Pt+2].c1ccc([PH+](CCC[PH+](c2ccccc2)c2ccccc2)c2ccccc2)cc1` ?
Response: N

Request: Hi team, can someone confirm the assay call for `CS(=O)(=O)OCCN(CCOS(C)(=O)=O)c1ccc(C=Nc2cc(Br)c(O)c(Br)c2)c(Cl)c1` ?
Response: N

Request: Hi team, can someone confirm the assay call for `CN(C)Cc1cc(N=Nc2ccc(Cl)c(Cl)c2)ccc1O` ?
Response: N

Request: Hi team, can someone confirm the assay call for `Nc1ccccc1Nc1c([N+](=O)[O-])cc(C(F)(F)F)cc1[N+](=O)[O-]` ?
Response: N

Request: Hi team, can someone confirm the assay call for CCS(=O)(=O)C(C(O)C(O)C(O)C(O)CO)S(=O)(=O)CC (centres undefined) ?
Response: N

Request: Hi team, can someone confirm the assay call for COC1OC2=CCC3C(=O)NC(=O)C3C2[C@H](OCc2ccccc2)C1OCc1ccccc1 (some centres undefined) ?
Response: N

Request: Hi team, can someone confirm the assay call for CC(C)(C)N1C(=O)C(Cl)(C#N)C1c1ccccc1 (centres undefined) ?
Response: N

Request: Hi team, can someone confirm the assay call for Cc1nn(C(=O)c2ccccc2O)c2c1C(c1ccc([N+](=O)[O-])cc1)SC(N)=N2 (centres undefined) ?
Response: N

---

test: NCI Yeast Anticancer Drug Screen. Data for the rad50 strain (AID 155);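 also: 0% = growth of vehicle-only cultures of the same strain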; conditions: S. cerevisiae rad50 strain growth inhibition; at 50.0 µM; hits give high values
About 79,000 compounds went through this panel and 15% of them were active in at least one assay; those are over-represented in the sample as a whole.
Measured growth inhibition of individual entries
Lab book: enter the figure in %, no units written.

Please review the following examples before continuing.
In [3]: df
Out[3]:
                                   compound  observed_result
0      CCc1ccccc1NC1=C(Cl)C(=O)c2ccccc2C1=O            -1.85
1      O=C1OC(c2ccccc2)(c2ccccc2)Cc2ccccc21               94
2  CCOC(=O)/C(=C\n1c(=O)sc2ccccc21)C(=O)c1ccccc1             24.6
3  CSC(=S)CC(O)[C@@H]1CC2c3ccccc3C1c1ccccc12 (some centres undefined)             76.7
4              O=C(Nc1ccccc1C(=O)O)c1ccccc1               44

Request: Consider the compound `CN(C)CCCNc1c2ccccc2nc2ccc(F)cc12` and give its recorded growth inhibition.
Response: 27.2

---

test: NCI Yeast Anticancer Drug Screen. Data for the bub3 strain (AID 167); details: S. cerevisiae bub3 mutant strain, at 5.0 µM (retest, dose inferred, filed as 0.5), hits give high values
This is part of a sample that, as a whole, favours compounds with a hit. Of some 79,000 tested, about 15% had one in any assay.
Reported metric: growth inhibition (%)
Lab book: enter the figure in %, no units written.

>>> print(df.to_string())
                                   compound  observed_result
0             CSC(=S)NN=C(c1ccccn1)c1ccccn1               -5
1  Clc1ccc(COC(CN2CCOCC2)c2ccccc2)c(Cl)c1 (stereo not given)               23
2  Cc1nn(C(=O)c2ccccc2O)c2c1C(c1ccc(O)cc1O)SC(N)=N2 (stereo not given)               15

Request: Consider the compound `BrCc1ccc([Si](c2ccccc2)(c2ccccc2)c2ccc(CBr)cc2)cc1` and give its recorded growth inhibition.
Response: -2

Request: Consider the compound `CNCCCNc1c2cc(OC)ccc2nc2cccc([N+](=O)[O-])c12` and give its recorded growth inhibition.
Response: -31
